target.or.test.system: Amine oxidase [flavin-containing] B (Rattus norvegicus)
assay.name: Inhibition of MAO-B in Sprague-Dawley rat brain mitochondrial suspension using kynuramine as substrate at 10 uM incubated for 5 mins prior to substrate addition measured for 5 mins by spectrophotometry
recorded.metric: inhibition at 10 µM (%)

Sample records with inhibition at 10 µM:
CNC(=O)/C=C1/COc2cc(OS(=O)(=O)c3cccc(Cl)c3)ccc21 = 0
CCNC(=O)Cc1coc2cc(OS(=O)(=O)c3cccc(Cl)c3)ccc12 = 0
CNC(=O)/C=C1/COc2c1ccc(OS(=O)(=O)c1cccc(Cl)c1)c2C = 2
CNC(=O)/C=C1/COc2cc(OS(=O)(=O)c3ccccc3)ccc21 = 0
O=C1COc2cc(OS(=O)(=O)c3cccc(Cl)c3)ccc21 = 0

I = CNC(=O)/C=C1/COc2cc(OS(=O)(=O)c3ccc(C(C)=O)cc3)ccc21
II = CNC(=O)/C=C1/COc2cc(OS(=O)(=O)CCC(F)(F)F)ccc21
[in] Identify the item whose inhibition at 10 µM is the smaller number: I or II Mark your selection by writing its label.
[out] I

* * *

target.or.test.system: Amine oxidase [flavin-containing] B (Rattus norvegicus, UniProt P19643)
Sequence (P19643 whole entry): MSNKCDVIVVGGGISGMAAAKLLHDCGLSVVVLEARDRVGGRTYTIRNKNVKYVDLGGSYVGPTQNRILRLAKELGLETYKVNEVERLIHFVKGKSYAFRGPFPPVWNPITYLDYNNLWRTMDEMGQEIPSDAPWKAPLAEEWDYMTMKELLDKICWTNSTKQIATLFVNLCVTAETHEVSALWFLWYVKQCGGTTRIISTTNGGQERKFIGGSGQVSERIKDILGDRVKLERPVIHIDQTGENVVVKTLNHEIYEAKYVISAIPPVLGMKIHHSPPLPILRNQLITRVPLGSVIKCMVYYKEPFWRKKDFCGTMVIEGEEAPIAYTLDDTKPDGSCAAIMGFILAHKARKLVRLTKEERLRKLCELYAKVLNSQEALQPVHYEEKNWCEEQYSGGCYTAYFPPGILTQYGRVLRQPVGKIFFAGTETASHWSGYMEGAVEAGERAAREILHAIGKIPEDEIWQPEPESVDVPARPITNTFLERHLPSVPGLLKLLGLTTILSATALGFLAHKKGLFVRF
assay.name: Inhibition of MAO-B in Sprague-Dawley rat brain mitochondrial suspension using kynuramine as substrate at 10 uM incubated for 5 mins prior to substrate addition measured for 5 mins by spectrophotometry
recorded.metric: inhibition at 10 µM (%)

P = CNC(=O)/C=C1/COc2cc(OS(=O)(=O)c3ccc([N+](=O)[O-])cc3)ccc21
Q = CNC(=O)/C=C1/COc2cc(OS(=O)(=O)c3ccc(OC)cc3)ccc21
R = CNC(=O)Cc1coc2cc(OS(=O)(=O)c3cccc(Cl)c3)ccc12
[in] # rank above entries by inhibition at 10 µM (max first, min last) Reply with the labels, ordered as the question asks.
[out] P, R, Q

* * *

target.or.test.system: Amine oxidase [flavin-containing] A (Rattus norvegicus)
Sequence (P21396 whole entry): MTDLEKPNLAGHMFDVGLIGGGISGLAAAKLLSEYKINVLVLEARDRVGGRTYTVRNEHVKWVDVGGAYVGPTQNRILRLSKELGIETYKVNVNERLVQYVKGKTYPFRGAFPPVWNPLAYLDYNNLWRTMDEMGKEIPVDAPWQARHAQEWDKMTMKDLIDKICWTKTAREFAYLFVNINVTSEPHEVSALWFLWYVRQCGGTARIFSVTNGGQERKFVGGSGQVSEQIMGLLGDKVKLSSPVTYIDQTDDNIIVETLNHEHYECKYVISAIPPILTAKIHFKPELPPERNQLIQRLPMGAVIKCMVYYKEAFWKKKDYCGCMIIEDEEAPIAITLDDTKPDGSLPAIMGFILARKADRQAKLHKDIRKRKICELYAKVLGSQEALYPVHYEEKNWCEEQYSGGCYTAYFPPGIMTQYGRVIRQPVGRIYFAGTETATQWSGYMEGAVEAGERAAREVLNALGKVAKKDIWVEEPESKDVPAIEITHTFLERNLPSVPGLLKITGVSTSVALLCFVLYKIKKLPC
assay.name: Inhibition of MAO-A in Sprague-Dawley rat brain mitochondrial suspension using kynuramine as substrate at 10 uM incubated for 5 mins prior to substrate addition measured for 5 mins by spectrophotometry
recorded.metric: inhibition at 10 µM (%)

O=C1COc2cc(OS(=O)(=O)c3cccc(Cl)c3)ccc21 = 17

1 = CCNC(=O)Cc1coc2cc(OS(=O)(=O)c3cccc(Cl)c3)ccc12
2 = CC(C)NC(=O)/C=C1/COc2cc(OS(=O)(=O)c3cccc(Cl)c3)ccc21
3 = CNC(=O)c1cc(=O)oc2cc(OS(=O)(=O)c3cccc(Cl)c3)ccc12
[in] Arrange these 3 molecules in increasing order of inhibition at 10 µM. Reply with the labels, ordered as the question asks.
[out] 3, 2, 1
(3: 8%, 2: 14%, 1: 31%)
